# Lookup of reported OD ratio 2-7/BSA keyed by entry
biological target: T1, BSA-conjugated Aβ heptapeptide AEFRHDC (C-terminal Cys coupled to NSMP-activated BSA); assay: ELISA;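 note: ELISA of antibody at 10 or 2 µg/ml binding plate-coated BSA–peptide conjugates, detected with HRP anti-human Ig and TMB colour, mock-treated BSA without peptide as negative control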
T1 construct: also called Peptide 2-7
T1 peptide: AEFRHDC
assay.readout: OD ratio 2-7/BSA

binder	assay.readout	measured.value
MS-Roche #7.11.H2 Fab (Fab, V domains shown) VH: QVQLVESGGGLVQPGGSLRLSCAASGFTFSSYAMSWVRQAPGKGLEWVSAINANGYKKYYADSVKGRFTISRDNSKNTLYLQMNSLRAEDTAVYYCARGKGNTHKPYGYVRYFDVWGQGTLVTVSS VL: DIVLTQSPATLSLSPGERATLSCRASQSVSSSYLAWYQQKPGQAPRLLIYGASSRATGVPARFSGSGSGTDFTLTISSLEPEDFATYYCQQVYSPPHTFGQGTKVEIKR	OD ratio 2-7/BSA	34
MS-Roche #7.2.H2 Fab (Fab, V domains shown) VH: QVQLVESGGGLVQPGGSLRLSCAASGFTFSSYAMSWVRQAPGKGLEWVSAINGTGMKKYYADSVKGRFTISRDNSKNTLYLQMNSLRAEDTAVYYCARGKGNTHKPYGYVRYFDVWGQGTLVTVSS VL: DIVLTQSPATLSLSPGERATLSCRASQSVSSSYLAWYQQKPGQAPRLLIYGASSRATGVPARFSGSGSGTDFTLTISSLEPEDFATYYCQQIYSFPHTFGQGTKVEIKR	OD ratio 2-7/BSA	16
MS-Roche #7.9.H1 Fab (Fab, V domains shown, assembled) VH: QVQLVESGGGLVQPGGSLRLSCAASGFTFSSYAMSWVRQAPGKGLEWVSAINANGQRKFYADSVKGRFTISRDNSKNTLYLQMNSLRAEDTAVYYCARGKGNTHKPYGYVRYFDVWGQGTLVTVSS VL: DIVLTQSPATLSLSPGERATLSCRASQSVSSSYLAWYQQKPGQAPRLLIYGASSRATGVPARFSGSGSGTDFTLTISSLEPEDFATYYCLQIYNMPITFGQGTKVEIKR	OD ratio 2-7/BSA	32
